# Tested System: a5β1 integrin mediated adhesion of K562 cells (Homo sapiens, UniProt P05556+P08648)
# Construct: a5β1 integrin mediated adhesion of K562 cells
# Sequence (P08648 42-894 limits assumed): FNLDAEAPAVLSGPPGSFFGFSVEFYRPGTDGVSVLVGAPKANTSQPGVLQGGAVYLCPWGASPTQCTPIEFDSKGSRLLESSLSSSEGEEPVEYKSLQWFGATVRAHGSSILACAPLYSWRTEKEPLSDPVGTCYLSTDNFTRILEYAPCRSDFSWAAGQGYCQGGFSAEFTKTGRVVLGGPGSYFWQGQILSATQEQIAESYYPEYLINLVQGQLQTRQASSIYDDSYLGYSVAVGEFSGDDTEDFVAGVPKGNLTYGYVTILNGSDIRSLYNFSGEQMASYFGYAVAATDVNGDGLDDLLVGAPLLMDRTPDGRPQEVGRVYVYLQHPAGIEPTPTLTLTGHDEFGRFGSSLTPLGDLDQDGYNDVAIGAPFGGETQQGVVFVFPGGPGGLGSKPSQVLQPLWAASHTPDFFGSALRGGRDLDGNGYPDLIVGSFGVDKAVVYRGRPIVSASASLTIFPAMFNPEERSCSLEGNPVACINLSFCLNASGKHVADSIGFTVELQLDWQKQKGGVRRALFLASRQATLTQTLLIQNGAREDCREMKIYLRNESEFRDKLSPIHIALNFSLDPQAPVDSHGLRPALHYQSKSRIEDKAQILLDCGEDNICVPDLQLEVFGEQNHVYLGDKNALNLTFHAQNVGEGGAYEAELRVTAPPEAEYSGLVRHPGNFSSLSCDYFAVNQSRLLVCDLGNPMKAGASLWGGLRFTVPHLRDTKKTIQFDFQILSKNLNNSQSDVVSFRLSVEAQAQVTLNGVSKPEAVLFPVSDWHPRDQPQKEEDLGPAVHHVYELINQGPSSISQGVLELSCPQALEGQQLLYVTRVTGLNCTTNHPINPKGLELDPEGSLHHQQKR
# Sequence (P08648 895-1049 partner limits assumed): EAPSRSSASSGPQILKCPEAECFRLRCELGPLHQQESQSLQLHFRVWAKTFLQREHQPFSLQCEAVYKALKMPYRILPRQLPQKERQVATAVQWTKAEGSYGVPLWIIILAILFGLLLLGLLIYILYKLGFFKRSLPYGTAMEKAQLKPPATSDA
# Sequence (P05556 21-798): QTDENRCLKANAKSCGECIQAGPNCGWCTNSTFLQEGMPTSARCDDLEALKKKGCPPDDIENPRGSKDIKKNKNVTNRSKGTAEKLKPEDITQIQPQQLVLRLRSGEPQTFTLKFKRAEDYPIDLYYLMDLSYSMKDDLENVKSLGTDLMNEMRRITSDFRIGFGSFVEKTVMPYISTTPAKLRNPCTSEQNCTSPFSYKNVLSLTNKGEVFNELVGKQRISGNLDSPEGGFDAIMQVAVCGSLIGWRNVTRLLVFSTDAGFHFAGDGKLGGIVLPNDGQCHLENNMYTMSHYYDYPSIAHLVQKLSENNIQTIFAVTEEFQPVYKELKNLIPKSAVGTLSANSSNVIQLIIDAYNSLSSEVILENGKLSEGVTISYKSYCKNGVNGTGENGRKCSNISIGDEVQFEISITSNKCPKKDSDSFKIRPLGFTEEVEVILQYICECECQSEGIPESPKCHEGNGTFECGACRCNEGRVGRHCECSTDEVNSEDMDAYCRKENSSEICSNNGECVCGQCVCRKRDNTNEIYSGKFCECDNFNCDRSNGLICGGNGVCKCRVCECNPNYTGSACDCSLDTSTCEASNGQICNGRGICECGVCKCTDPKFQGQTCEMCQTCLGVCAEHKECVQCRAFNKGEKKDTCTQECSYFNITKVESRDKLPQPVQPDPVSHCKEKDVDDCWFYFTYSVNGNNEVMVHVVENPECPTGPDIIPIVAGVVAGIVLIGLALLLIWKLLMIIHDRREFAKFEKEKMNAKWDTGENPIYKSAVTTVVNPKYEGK
# Protocol: In vitro cell adhesion assay: adhesion of K562 cells to fibronectin fragment Fn9-10 (crystal violet)
# Measurement Setup: K562 cells on Fn9-10 coated plates, 0.2 mM MnCl, 45 minutes; IC50 data; unit inferred
Listed below: pIC50 values for each entry.
Scale for pIC50: -log10 of concentration given in mol/L; no unit attached.

Previously resolved entries follow.
[[record]]
query_smiles = "N#Cc1cccc(CN2CCC(Oc3ccc(C[C@H](NC(=O)c4c(Cl)cccc4Cl)C(=O)O)cc3)CC2)c1"
value_observed = 5.18

[[record]]
query_smiles = "O=C(N[C@@H](Cc1ccc(O[C@H]2CCCN(Cc3cc(F)ccc3F)C2)cc1)C(=O)O)c1c(Cl)cccc1Cl"
value_observed = 4.94

[[record]]
query_smiles = "CN1CCC(Oc2ccc(C[C@H](NC(=O)c3c(Cl)cccc3Cl)C(=O)O)cc2)CC1"
value_observed = 5.62


Endpoint output: pIC50 of Cc1cc(C(=O)N2CC(Oc3ccc(C[C@H](NC(=O)c4c(Cl)cccc4Cl)C(=O)O)cc3)C2)ccc1F . Value?
5.40

Cited source for all entries: patent US20090203663A1
